- Tested on: Human betaherpesvirus 5
- assay name: Antiviral activity against HCMV using plaque reduction assay; >100 indicates IC50 greater than the noted (highest) concentration tested.
- Format: functional, organism-based
pIC50: −log10 of the molar value.
measurement kind: pIC50

Query :: So what's the measured pIC50 for this one? O[C@@H]1C(c2c(Cl)nc3cc(Cl)c(Cl)cn23)OC[C@@H]1O (stereo partly specified)
Result :: < 4.00

* * *

- assay name: Visual cytotoxicity was scored on HFF cells at time of HCMV plaque enumeration; >100 indicates IC50 greater than the noted(highest) concentration tested.
- Assay type: functional, cell-based
- condition parameters: Homo sapiens
pIC50: −log10 of the molar value.
measurement kind: pIC50

Query :: So what's the measured pIC50 for this one? O[C@@H]1COC(c2c(Cl)nc3ccc(Cl)cn23)[C@@H]1O (single isomer, unassigned)
Result :: < 4.00

Source of measurements: ChEMBL document CHEMBL1136759
